biological target: humanen CGRP-Rezeptor (Homo sapiens, UniProt O60894+Q16602); construct: SK-N-MC-Zellen werden in "Dulbecco's modified Eagle Medium" kultiviert; endogenous in cells; host or cells: SK-N-MC cells (membrane homogenate); assay: Binding studies with SK-N-MC cells expressing the human CGRP receptor (125I-CGRP displacement on membrane homogenate); conditions: 50 pM 125I-Iodotyrosyl-CGRP, 180 min at room temperature
Sequence (Q16602 23-461): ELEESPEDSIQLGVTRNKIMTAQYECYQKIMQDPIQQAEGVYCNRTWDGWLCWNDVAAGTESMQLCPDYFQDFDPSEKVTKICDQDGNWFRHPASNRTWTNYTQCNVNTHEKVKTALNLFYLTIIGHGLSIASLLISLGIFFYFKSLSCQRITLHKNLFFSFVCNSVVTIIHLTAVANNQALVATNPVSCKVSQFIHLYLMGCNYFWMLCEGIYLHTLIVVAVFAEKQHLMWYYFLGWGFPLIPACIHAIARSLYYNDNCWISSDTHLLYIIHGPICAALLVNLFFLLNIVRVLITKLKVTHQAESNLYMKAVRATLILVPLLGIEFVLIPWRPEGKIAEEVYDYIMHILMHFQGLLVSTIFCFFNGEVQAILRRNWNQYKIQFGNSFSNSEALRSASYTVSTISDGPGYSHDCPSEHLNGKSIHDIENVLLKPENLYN
Sequence (O60894 27-148): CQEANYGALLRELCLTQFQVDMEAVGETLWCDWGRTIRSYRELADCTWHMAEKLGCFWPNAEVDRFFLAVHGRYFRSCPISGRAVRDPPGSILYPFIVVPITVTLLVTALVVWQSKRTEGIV
// reported Ki for each item listed
Lab book: enter the figure in nM, no units written.

Take a look at these entries with their results.
structure smiles string	system	units	Ki
COc1ccc2c(c1)CCN(C1CCN(c3cc(C(=O)c4cn(C)c5ccccc45)ncn3)CC1)C(=O)N2	humanen CGRP-Rezeptor (Homo sapiens, UniProt O60894+Q16602)	nM	4
CN(C)CCCn1cc(C(=O)c2cc(N3CCC(n4c(=O)[nH]c5ncccc54)CC3)ncn2)c2ccccc21	humanen CGRP-Rezeptor (Homo sapiens, UniProt O60894+Q16602)	nM	6

Enquiry: Hello, I am looking for reported Ki with humanen CGRP-Rezeptor (Homo sapiens, UniProt O60894+Q16602) for Cn1cc(C(=O)c2cc(N3CCC(n4cc(-c5ccccc5)[nH]c4=O)CC3)ncn2)c2ccccc21 . Could you help?
Return: 6

Enquiry: Hello, I am looking for reported Ki with humanen CGRP-Rezeptor (Homo sapiens, UniProt O60894+Q16602) for Cn1cc(C(=O)c2cc(N3CCC(n4c(=O)[nH]c5ncccc54)CC3)ncn2)c2ccc(F)cc21 . Could you help?
Return: 2

Data origin: patent EP2065382A1
